B1: REST corepressor 3, residues 87 to 134; numbered along this chain, Q9P2K3 (parent)
chain: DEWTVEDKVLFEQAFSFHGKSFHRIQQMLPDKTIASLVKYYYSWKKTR

# Variants of: B1
# test description: abundance fitness (aPCA) (normalised: wild type 0, dead -1); higher = more abundant; growth selection in yeast, the domain comes from the species named
# conditions used: Homo sapiens
The following variants are listed with their measured abundance fitness values.

mutations | abundance fitness
K32H | -0.45
V5M | -0.612
S21A | 0.221
K46W | -0.729
Y40K | -0.346
K45G | -0.69
A35N | -0.145
H18L | -0.731
D31T | -0.316
Y41E | -0.491
P30S | -0.851
S43L | -0.49
L10R | -0.213
K20W | -0.551
D31G | 0.029
F17S | 0.262
E12D | -0.07
S43W | -0.327
E12R | -1.01
V9M | -0.592
S21G | -1.12
W44K | -0.393
K8S | -0.822
T33K | -0.109
W3R | -1.02
Y42T | 0.103
V5L | -0.458
Y41F | -0.644
L29C | -0.795
K8G | -0.673
W3L | -0.858
Q13A | -0.389
D7S | -0.611
Q27R | -0.244
K8T | -0.542
Y42R | 0.234
S16D | 0.149
D7Y | -0.686
T47Q | -0.979
G19V | -0.805

Source: the Human Domainome abundance scans (Beltran et al. 2025)
